systemUnderTest: human 5-HT3A receptor R65A mutant (Homo sapiens, UniProt P46098, R87A)
Sequence (P46098 24-478 R87A): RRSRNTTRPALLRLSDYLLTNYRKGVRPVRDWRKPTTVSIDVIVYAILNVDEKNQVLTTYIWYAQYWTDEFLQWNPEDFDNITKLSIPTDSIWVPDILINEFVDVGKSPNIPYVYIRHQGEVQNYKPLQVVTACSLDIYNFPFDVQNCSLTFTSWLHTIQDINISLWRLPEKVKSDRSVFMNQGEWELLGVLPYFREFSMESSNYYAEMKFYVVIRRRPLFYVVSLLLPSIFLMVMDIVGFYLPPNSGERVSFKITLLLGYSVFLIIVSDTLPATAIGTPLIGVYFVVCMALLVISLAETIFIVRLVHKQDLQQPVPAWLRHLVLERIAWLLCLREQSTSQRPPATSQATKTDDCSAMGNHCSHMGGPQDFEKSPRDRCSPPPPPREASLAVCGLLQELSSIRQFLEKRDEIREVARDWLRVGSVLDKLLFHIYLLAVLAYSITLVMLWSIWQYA
testMethodNotes: Two-electrode voltage clamp, I5-HT inhibition, R65A mutant
conditionSet: −80 mV
recordedEndpoint: IC50 (µM)
Output spec: scalar in µM, unitless text.

Query: Give me measured IC50, please, for this compound: `O=c1c(O)c(-c2ccc(O)cc2)oc2cc(O)cc(O)c12`
Result: 44.7

* * *

systemUnderTest: human 5-HT3A receptor W63A mutant (Homo sapiens, UniProt P46098, W85A)
Sequence (P46098 24-478 W85A): as the sequence (P46098 24-478 R87A) above, with W62A, A64R counted along it
testMethodNotes: Two-electrode voltage clamp, I5-HT inhibition, W63A mutant
conditionSet: −80 mV
recordedEndpoint: pIC50
On this scale, pIC50 is minus log10 of a concentration expressed in M (mol/L).

Query: Please indicate recorded pIC50 of O=c1c(O)c(-c2ccc(O)cc2)oc2cc(O)cc(O)c12 [KAE, kaempferol] measured with human 5-HT3A receptor W63A mutant (Homo sapiens, UniProt P46098, W85A).
Result: 4.47
